experimental target: UniProt:Q9NR19
Sequence (Q9NR19 whole entry): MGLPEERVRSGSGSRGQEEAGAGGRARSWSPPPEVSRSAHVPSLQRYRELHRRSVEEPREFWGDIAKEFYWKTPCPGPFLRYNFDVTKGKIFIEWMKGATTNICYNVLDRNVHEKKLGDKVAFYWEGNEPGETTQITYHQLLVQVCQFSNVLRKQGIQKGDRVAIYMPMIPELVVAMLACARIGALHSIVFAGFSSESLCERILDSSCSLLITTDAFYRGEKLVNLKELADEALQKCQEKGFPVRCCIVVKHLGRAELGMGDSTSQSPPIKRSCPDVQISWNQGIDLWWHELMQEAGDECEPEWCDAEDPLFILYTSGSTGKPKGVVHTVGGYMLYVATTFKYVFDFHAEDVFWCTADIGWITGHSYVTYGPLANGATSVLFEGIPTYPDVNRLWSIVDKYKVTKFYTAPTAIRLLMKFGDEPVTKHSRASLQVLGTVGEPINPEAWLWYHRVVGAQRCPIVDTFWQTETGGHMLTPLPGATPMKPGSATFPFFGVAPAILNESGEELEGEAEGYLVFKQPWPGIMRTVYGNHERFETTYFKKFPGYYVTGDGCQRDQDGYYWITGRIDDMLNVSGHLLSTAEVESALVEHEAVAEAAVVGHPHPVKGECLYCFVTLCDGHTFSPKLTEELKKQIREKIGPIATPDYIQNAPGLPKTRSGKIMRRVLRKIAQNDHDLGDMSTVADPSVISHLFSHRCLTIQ
assay details: cell-based;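 further: cellular assay in MDA-MB-468 cells under hypoxia (1% O2), 5 h with 0.5 mM 13C-acetate, LC-MS readout of 13C label in palmitate, inhibition across inhibitor concentrations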
pIC50: −log10 of the molar value.
Please respond with reported pIC50 for every item in the list.

Incoming: Would you mind telling me what pIC50 value was observed for CC1=NN(c2ccccc2)C(=O)C1C(=O)Nc1cccc(C(F)(F)F)c1 (stereo not shown) [compound 208] ?
Outgoing: < 7.00

Incoming: Would you mind telling me what pIC50 value was observed for COc1ccc(N2N=C(C)C(C(=O)Nc3cccc(C(C)(F)F)c3)C2=O)cc1OC (stereo not shown) [compound 287] ?
Outgoing: 7.30 to 9.30

Incoming: Would you mind telling me what pIC50 value was observed for CC1=NN(c2cccc(-c3nnc(C)o3)c2)C(=O)C1C(=O)Nc1cccc(C(C)(F)F)c1 (stereo not shown) [compound 280] ?
Outgoing: 7.30 to 9.30

Incoming: Would you mind telling me what pIC50 value was observed for CC1=NN(c2ccncc2)C(=O)C1C(=O)Nc1cccc(C(C)(F)F)c1 (stereo not shown) [compound 231] ?
Outgoing: < 7.00

Incoming: Would you mind telling me what pIC50 value was observed for CC1=NN(c2ccc(OC(F)F)cc2)C(=O)C1C(=O)Nc1cc(C(C)(F)F)ccc1CO (stereo not shown) [compound 306] ?
Outgoing: 7.30 to 9.30

Incoming: Would you mind telling me what pIC50 value was observed for COc1cccc(N2N=C(C)C(C(=O)Nc3cccc(-c4cnccn4)c3)C2=O)c1 (stereo not shown) [compound 249] ?
Outgoing: 7.30 to 9.30

Incoming: Would you mind telling me what pIC50 value was observed for CCC(F)(F)c1cccc(NC(=O)C2C(=O)N(c3ccc(OC)cc3)N=C2C)c1 (stereo not shown) [compound 330] ?
Outgoing: 7.30 to 9.30

Incoming: Would you mind telling me what pIC50 value was observed for COc1cc(N2N=C(C)C(C(=O)Nc3cccc(C(C)(F)F)c3)C2=O)ccc1OC(F)F (stereo not shown) [compound 311] ?
Outgoing: 7.30 to 9.30

Incoming: Would you mind telling me what pIC50 value was observed for CC1=NN(c2ccccc2)C(=O)C1C(=O)Nc1cccc(-c2ccco2)c1 (stereo not shown) [compound 108] ?
Outgoing: 7.30 to 9.30

Incoming: Would you mind telling me what pIC50 value was observed for CC1=NN(c2cccc(C(=O)OC(C)C)c2)C(=O)C1C(=O)Nc1cccc(-c2ncc[nH]2)c1 (stereo not shown) [compound 235] ?
Outgoing: < 7.00

Incoming: Would you mind telling me what pIC50 value was observed for CCCOc1ccc(N2N=C(C)C(C(=O)Nc3cccc(C(C)(F)F)c3)C2=O)cc1 (stereo not shown) [compound 317] ?
Outgoing: 7.30 to 9.30

Incoming: Would you mind telling me what pIC50 value was observed for CC1=NN(c2ccc(OC(F)F)c(-c3cccnc3)c2)C(=O)C1C(=O)Nc1cccc(C(C)(F)F)c1 (stereo not shown) [compound 310] ?
Outgoing: 7.30 to 9.30

Incoming: Would you mind telling me what pIC50 value was observed for COC(=O)c1cccc(N2N=C(C)C(C(=O)Nc3cccc(C(C)(F)F)c3)C2=O)c1 (stereo not shown) [compound 261] ?
Outgoing: 7.30 to 9.30

Incoming: Would you mind telling me what pIC50 value was observed for CC1=NN(c2ccc(-c3nnn[nH]3)cc2)C(=O)C1C(=O)Nc1cccc(C(C)(F)F)c1 (stereo not shown) [compound 297] ?
Outgoing: < 7.00

Incoming: Would you mind telling me what pIC50 value was observed for CC1=NN(c2cccc(-c3ncco3)c2)C(=O)C1C(=O)Nc1cccc(-c2ncc[nH]2)c1 (stereo not shown) [compound 279] ?
Outgoing: < 7.00

Incoming: Would you mind telling me what pIC50 value was observed for CC1=NN(c2cccc(C(F)(F)F)c2)C(=O)C1C(=O)Nc1cccc(-c2cnccn2)c1 (stereo not shown) [compound 166] ?
Outgoing: < 7.00
